Molecular target: hGLP-1R (Homo sapiens, UniProt P43220)
Sequence (P43220 24-463): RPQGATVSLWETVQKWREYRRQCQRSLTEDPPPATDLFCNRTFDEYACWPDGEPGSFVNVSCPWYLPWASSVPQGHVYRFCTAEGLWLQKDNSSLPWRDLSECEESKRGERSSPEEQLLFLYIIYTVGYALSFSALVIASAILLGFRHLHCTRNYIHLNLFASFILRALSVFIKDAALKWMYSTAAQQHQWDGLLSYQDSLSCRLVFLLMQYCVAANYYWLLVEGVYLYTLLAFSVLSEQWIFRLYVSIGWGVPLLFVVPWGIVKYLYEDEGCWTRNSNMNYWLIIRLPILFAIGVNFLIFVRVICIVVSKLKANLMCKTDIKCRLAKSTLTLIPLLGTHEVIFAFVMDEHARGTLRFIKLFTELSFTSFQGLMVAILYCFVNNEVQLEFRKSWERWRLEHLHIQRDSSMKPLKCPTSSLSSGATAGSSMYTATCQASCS
Experiment: cell-based or functional assay
Threshold check on Relative cAMP EC50: strictly below 1 nM is Yes; on or above 1 nM is No.

| binder | assigned_category |
| --- | --- |
| YXQGTXTSDYXIXLDXKAQXXFIEXLLEGGPSSGEPPPS (synthetic construct; SITE 2: note = 2-Aminoisobutyric Acid; SITE 6: note = alpha-methyl-2-fluoro-L-phenylalanine; SITE 11: note = alpha-methyl-L-serine; SITE 13: note = alpha-methyl-leucine; SITE 16: note = L-ornithine; SITE 17: note = Lysine is chemically modified through conjugation of the epsilon) [Example 368] | Yes |

Input line: Please determine if YXQGTXTSDXSIXLDKKAQXAFIEYLTEGGPSSGEPPPSGSEE (non-natural residues, C18 diacid acylation, C-terminal amide; synthetic construct; SITE 2: note = 2-Aminoisobutyric Acid; SITE 6: note = alpha-methyl-2-fluoro-L-phenylalanine; SITE 10: note = 3-(4-Pyridyl)-L-alanine; SITE 13: note = alpha-methyl-leucine; SITE 17: note = Lysine is chemically modified through conjugation of the epsilon-amino group of the Lysine) [Example 633] is below 1 nM in terms of Relative cAMP EC50.
Output line: Yes

Input line: Does YXQGTFTSDXSXXLDKKAQXAFIEYLIAGGPSSGAPPPSGSEE (synthetic construct; SITE 2: note = 2-Aminoisobutyric Acid; SITE 10: note = 3-(4-Pyridyl)-L-alanine; SITE 12: note = L-ornithine; SITE 13: note = alpha-methyl-leucine; SITE 17: note = Lysine is chemically modified through conjugation of the epsilon-amino group of the Lysine side chain with (gamma-Gl)) [Example 961] have Relative cAMP EC50 strictly under 1 nM?
Output line: No

Input line: Field: below-cutoff. Rule: recorded Relative cAMP EC50 strictly less than 1 nM. Subject: YXQGTFTSDFSKXLDKKAQXAFIEYLLAGGPSSGAPPPSGE (Aib, αMeL; acylated Lys; C-terminal amide; synthetic construct; SITE 2: note = 2-Aminoisobutyric Acid; SITE 13: note = alpha-methyl-leucine; SITE 17: note = Lysine is chemically modified through conjugation of the epsilon-amino group of the Lysine side chain with (2-[2-(2-Amino-ethoxy)-ethoxy]-acetyl)-(gamma-Glu)-CO-(CH2) 18-CO2H; SITE 20: n) [Example 11]
Output line: No

Input line: Say whether its Relative cAMP EC50 is strictly beneath 1 nM. Entry: YXQGTXTSDXXIXLDXKAQXEFIEXLIEGGPPSXXPPPXSE (non-natural residues; lipidated Lys AEEA-γGlu-C18 diacid; C-term amide; synthetic construct; SITE 2: note = 2-Aminoisobutyric Acid; SITE 6: note = alpha-methyl-2-fluoro-L-phenylalanine; SITE 10: note = 3-(4-Pyridyl)-L-alanine; SITE 11: note = alpha-methyl-L-serine; SITE 13: note = alpha-methyl-leucine; SITE 16: note = L-ornithine; SITE 17: note = Lysine is chemically mo) [Example 1196]
Output line: Yes

Input line: In plain terms, does YXQGTXTSDXXIXLDXKAQXEFIEXLIEGGPPSXXPPPSGSE (non-natural residues; lysine acylated AEEA-γGlu-C18 diacid; C-terminal amide; synthetic construct; SITE 2: note = 2-Aminoisobutyric Acid; SITE 6: note = alpha-methyl-2-fluoro-L-phenylalanine; SITE 10: note = 3-(4-Pyridyl)-L-alanine; SITE 11: note = alpha-methyl-L-serine; SITE 13: note = alpha-methyl-leucine; SITE 16: note = L-ornithine; SITE 17: note = Lysine is chemically mo) [Example 1198] come in under 1 nM for Relative cAMP EC50?
Output line: Yes
